# Test system: HIV-2 protease
# ASSAY SUMMARY: HIV protease cleavage of nonapeptide (HPLC)
# Format: biochemical
# RUN CONDITIONS: 0.5 μl of 10 μg/μl inhibitor in DMSO per 10 μl reaction; pH 6.5, room temperature; pentapeptide product relative to DMSO control; sampled at ca. 16 and 40 hr (time not given)
I'd be grateful if you could share measured Percent Control Cleavage of Nonapeptide HIV-1 Cleavage Site Fragment for these entries.
Give bare numbers, in %.

Worked set:
| COMPOUND | TARGET OR SYSTEM | REPORTED VALUE |
| --- | --- | --- |
| CCCCCCCCCCC[C@@H]1O[C@H]1CO [Example 31, (2S-trans)-3-Undecyloxirane Methanol] | HIV-2 protease | 95 |
| CCCCCCCCCCC[C@H]1O[C@@H]1C(=O)O | HIV-2 protease | 93 |
| CCCCCCC[C@@H]1O[C@H]1CO [Example 33, (2S-trans)-3-heptyloxirane Methanol] | HIV-2 protease | 105 |

Attention now turns to another entry.
Prompt line: Report measured Percent Control Cleavage of Nonapeptide HIV-1 Cleavage Site Fragment; entry is CCCCCCCCC[C@@H]1O[C@@H]1C(N)=O [Example 24, (2S-cis)-3-Nonyloxiranecarboxy Amide]
Response line: 113

---

# TARGET OR SYSTEM: porcine Renin (Sus scrofa, UniProt A0A287APG1)
# Construct: purchased Sigma
# Sequence (A0A287APG1 24-407): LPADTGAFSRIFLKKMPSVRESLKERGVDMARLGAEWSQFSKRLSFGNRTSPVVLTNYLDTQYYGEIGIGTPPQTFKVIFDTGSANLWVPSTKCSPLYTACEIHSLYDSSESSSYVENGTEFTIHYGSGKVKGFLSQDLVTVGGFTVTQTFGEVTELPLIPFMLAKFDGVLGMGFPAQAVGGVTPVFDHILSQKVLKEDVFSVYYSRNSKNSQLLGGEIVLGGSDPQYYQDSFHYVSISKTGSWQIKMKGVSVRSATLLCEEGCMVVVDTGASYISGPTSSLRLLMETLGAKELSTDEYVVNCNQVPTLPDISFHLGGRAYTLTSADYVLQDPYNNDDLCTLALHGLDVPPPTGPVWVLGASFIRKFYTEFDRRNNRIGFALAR
# ASSAY SUMMARY: Porcine Renin cleavage of porcine tetradecapeptide (HPLC)
# Format: biochemical
# RUN CONDITIONS: 0.5 μl of 50 μg/μl inhibitor in DMSO in 50 μl; pH 6.00, room temperature, 70 min; relative to uninhibited control
I'd be grateful if you could share measured Percent control (tetrapeptide produced) for these entries.
Answers are plain numbers, in %.

The following compounds each have a reported value; give each one's Percent control (tetrapeptide produced).
1. CCCCCCCCC[C@@H]1O[C@H]1C(=O)O [Example 35, (2R-trans)-3-Nonyloxiranecarboxylic Acid]
2. CCCCCCC[C@H]1O[C@H]1CO [Example 15, (2S-cis)-3-Heptyloxirane Methanol]
3. CCCCCCCCCCC[C@H]1O[C@@H]1C(=O)O
4. CCCCCCC[C@@H]1O[C@@H]1CO [Example 16, (2R-cis)-3-Heptyloxirane Methanol]

Response line:
1. 72
2. 86
3. 71
4. 96

---

# Test system: HIV-2 protease
# ASSAY SUMMARY: HIV protease cleavage of nonapeptide (HPLC)
# Format: biochemical
# RUN CONDITIONS: 0.5 μl of 10 μg/μl inhibitor in DMSO per 10 μl reaction; pH 6.5, room temperature; pentapeptide product relative to DMSO control; sampled at ca. 16 and 40 hr (time not given)
Hi, to clarify the labels: Y covers Percent Control Cleavage of Nonapeptide HIV-1 Cleavage Site Fragment from 70% upward, N covers anything below 70%.

These recorded examples may help you get a feel for the data.
| COMPOUND | CLASS NAME |
| --- | --- |
| CCCCCCC[C@H]1O[C@H]1CO [Example 15, (2S-cis)-3-Heptyloxirane Methanol] | N |
| CCCCCCC[C@H]1O[C@H]1C (relative stereo) [Example 43, cis-2-Epoxydecene] | Y |
| CCCCCCCCCCCCCC(=O)O [Myristic Acid, reference compound] | Y |

Prompt line: Check this compound for Percent Control Cleavage of Nonapeptide HIV-1 Cleavage Site Fragment at or above 70%: CCCCCCCCC[C@@H]1O[C@@H]1CO [Example 12, (2R-cis)-3-Nonyloxirane Methanol]
Response line: Y

Prompt line: Check this compound for Percent Control Cleavage of Nonapeptide HIV-1 Cleavage Site Fragment at or above 70%: CCCCCCC[C@H]1O[C@H]1C(=O)O [Example 37, (2R-cis)-3-Heptyloxirane Carboxylic Acid]
Response line: Y

Prompt line: Check this compound for Percent Control Cleavage of Nonapeptide HIV-1 Cleavage Site Fragment at or above 70%: O=[N+]([O-])c1ccc(OCC2CO2)cc1 (stereo not drawn) [1,2-Epoxy-3-(p-nitrophenoxy)propane, reference compound]
Response line: N

Prompt line: Check this compound for Percent Control Cleavage of Nonapeptide HIV-1 Cleavage Site Fragment at or above 70%: CCCCCCCOC[C@H]1O[C@H]1CO
Response line: N

Prompt line: Check this compound for Percent Control Cleavage of Nonapeptide HIV-1 Cleavage Site Fragment at or above 70%: CCCCCCCCC[C@@H]1O[C@H]1CO [Example 29, (2S-trans)-3-Nonyloxirane Methanol]
Response line: Y

---

# Tested on: HIV-2 protease
# ASSAY SUMMARY: HIV protease cleavage of nonapeptide (HPLC)
# Assay type: biochemical
# RUN CONDITIONS: 0.5 μl of 10 μg/μl inhibitor in DMSO per 10 μl reaction; pH 6.5, room temperature; pentapeptide product relative to DMSO control; sampled at ca. 16 and 40 hr (time not given)
ENDPOINT: Percent Control Cleavage of Nonapeptide HIV-1 Cleavage Site Fragment (%)
Numbers only, in %.

Worked set:
| MOLECULE | UNIT NAME | REPORTED VALUE |
| --- | --- | --- |
| CCCCCCCCCCC[C@@H]1O[C@@H]1CO (relative stereo) [2-cis-Undecyloxirane methanol] | % | 104 |
| CCCCCCC[C@@H]1O[C@@H]1CO [Example 16, (2R-cis)-3-Heptyloxirane Methanol] | % | 42 |
| C/C=C/C/C=C/CCC(=O)[C@H]1O[C@H]1C(N)=O | % | 10 |
| CCCCCCCCC[C@H]1O[C@H]1C(=O)N(CC)CC | % | 77 |
| CCCCCCCCC[C@@H]1O[C@H]1C(=O)O [Example 35, (2R-trans)-3-Nonyloxiranecarboxylic Acid] | % | 77 |

The following molecules each have a reported value; give each one's Percent Control Cleavage of Nonapeptide HIV-1 Cleavage Site Fragment.
1. CCCCCCC/C=C\CO [Example 3, cis-2-Decen-1-ol]
2. CCCCCCCCC[C@H]1O[C@H]1CO [Example 11, (2S-cis)-3-Nonyloxirane Methanol]

Response line:
105
85

---

I'd be grateful if you could share measured Percent control (tetrapeptide produced) for these entries.
# TARGET OR SYSTEM: porcine Renin (Sus scrofa)
# Construct: purchased Sigma
# ASSAY SUMMARY: Porcine Renin cleavage of porcine tetradecapeptide (HPLC)
# Type: biochemical
# RUN CONDITIONS: 0.5 μl of 50 μg/μl inhibitor in DMSO in 50 μl; pH 6.00, room temperature, 70 min; relative to uninhibited control
One number for each entry, in %.

The following compounds each have a reported value; give each one's Percent control (tetrapeptide produced).
1. CCCCCCCCCCC[C@@H]1O[C@H]1C(=O)O
2. CCCCCCCCC[C@H]1O[C@H]1C(N)=O [Example 23, (2R-cis)-3-Nonyloxiranecarboxy Amide]
3. C/C=C/C/C=C/CCC(=O)[C@H]1O[C@H]1C(N)=O

Response line:
1. 51
2. 88
3. 68

The following compounds each have a reported value; give each one's Percent control (tetrapeptide produced).
1. CCCCCCCCC[C@H]1O[C@H]1C(=O)O [Example 21, (2R-cis)-3-Nonyloxiranecarboxylic Acid]
2. CCCCCCCCC[C@H]1O[C@H]1CO [Example 11, (2S-cis)-3-Nonyloxirane Methanol]
3. CCCCCCCCC[C@H]1O[C@@H]1C(=O)O [Example 36, (2S-trans)-3-Nonyloxiranecarboxylic acid]
4. CCCCCCCCC[C@@H]1O[C@@H]1C(N)=O [Example 24, (2S-cis)-3-Nonyloxiranecarboxy Amide]
5. O=[N+]([O-])c1ccc(OCC2CO2)cc1 (centres unmarked) [1,2-Epoxy-3-(p-nitrophenoxy)propane, reference compound]

Response line:
86
106
12
106
106

---

# Tested on: HIV-2 protease
# ASSAY SUMMARY: HIV protease cleavage of nonapeptide (HPLC)
# Assay type: biochemical
# RUN CONDITIONS: 0.5 μl of 10 μg/μl inhibitor in DMSO per 10 μl reaction; pH 6.5, room temperature; pentapeptide product relative to DMSO control; sampled at ca. 16 and 40 hr (time not given)
Where a SMILES comes first, the peptide text is derived from it. [ ]: non-standard residue; d: D form. The star is where a group is joined. Sta = CC(C)C[C@H](N)[C@@H](O)CC(=O)O; Isovaleryl = CC(C)CC(=O)*
ENDPOINT: Percent Control Cleavage of Nonapeptide HIV-1 Cleavage Site Fragment (%)
Numbers only, in %.

Worked set:
| COMPOUND | UNIT NAME | REPORTED VALUE |
| --- | --- | --- |
| CCCCCCCOC[C@@H]1O[C@@H]1CO | % | 71 |
| CCCCCCC[C@H]1O[C@@H]1CO [Example 34, (2R-trans)-3-Heptyloxirane Methanol] | % | 104 |
| CCCCCCCCC[C@H]1O[C@H]1C(N)=O [Example 23, (2R-cis)-3-Nonyloxiranecarboxy Amide] | % | 102 |
| CCCCCCCCC[C@H]1O[C@H]1C(=O)N1CCC[C@H]1C(=O)OC | % | 24 |
| CCCCCCCCC[C@H]1O[C@@H]1CO [Example 30, (2R-trans)-3-Nonyloxirane Methanol] | % | 105 |
| CCCCCCCCCCC[C@H]1O[C@@H]1CO (relative stereo) [2-trans-Undecyloxirane methanol] | % | 88 |

Prompt line: System HIV-2 protease. Read-out Percent Control Cleavage of Nonapeptide HIV-1 Cleavage Site Fragment. Item CC(C)CC(=O)N[C@H](C(=O)N[C@H](C(=O)N[C@@H](CC(C)C)[C@@H](O)CC(=O)N[C@@H](C)C(=O)N[C@@H](CC(C)C)[C@@H](O)CC(=O)O)C(C)C)C(C)C [Pepstatin A, reference compound] (Isovaleryl-VV[Sta]A[Sta]-OH) . Report value.
Response line: 1
